System: RAW-Dual
Assay: NF-kB SEAP reporter activity, fold change vs agonist alone; cytotoxicity flag (confluency mask): not cytotoxic; higher = enhanced NF-kB activity
Settings: agonist: Pam2CSK4 (TLR2/6) 0.1 ug/mL
In all, about 2,900 compounds were measured (“NF-kB SEAP reporter activity, fold change vs agonist alone”: median about 0.99, highest 2% from about 2.6 on). The full list was thinned out, with the highest values kept by preference.

compound: Cn1cc(C2=C(c3ccc(Cl)cc3Cl)C(=O)NC2=O)c2ccccc21 (library stock concentration (final ~1000-fold dilution): 10 mM)
NF-kB SEAP reporter activity: 1.49

compound: Nc1nc(NC2CC2)c2ncn(C3C=CC(CO)C3)c2n1 (stereo unspecified) (library stock concentration (final ~1000-fold dilution): 10 mM)
NF-kB SEAP reporter activity: 1.35

compound: CC1OC(OC2C(Oc3cc(O)c4c(c3)OC(c3ccc(O)cc3)CC4=O)OC(CO)C(O)C2O)C(O)C(O)C1O (stereo unspecified) (library stock concentration (final ~1000-fold dilution): 10 mM)
NF-kB SEAP reporter activity: 1.17

compound: Cn1c(=O)cc(C(=O)Nc2ccc3c(c2)OCCO3)c2ccccc21 (library stock concentration (final ~1000-fold dilution): 10 mM)
NF-kB SEAP reporter activity: 0.995

compound: CC(=O)C(=O)Oc1ccccc1C(=O)O (library stock concentration (final ~1000-fold dilution): 10 mM)
NF-kB SEAP reporter activity: 0.887

compound: O=C(O)CSc1cc(NS(=O)(=O)c2ccc(Br)cc2)c2ccccc2c1O (library stock concentration (final ~1000-fold dilution): 10 mM)
NF-kB SEAP reporter activity: 1.24

compound: COCCOc1cc(F)c2c(Nc3ccc(NC(=O)Cn4cc(C(C)C)nn4)cc3)ncnc2c1 (library stock concentration (final ~1000-fold dilution): 10 mM)
NF-kB SEAP reporter activity: 1.16

compound: O=C1N=C(O)CN1N=Cc1ccc(-c2ccc([N+](=O)[O-])cc2)o1 (library stock concentration (final ~1000-fold dilution): 10 mM)
NF-kB SEAP reporter activity: 0.877

compound: COc1cc(CCC(=O)CC(O)CCc2ccc(O)c(OC)c2)ccc1O (stereo unspecified) (library stock concentration (final ~1000-fold dilution): 10 mM)
NF-kB SEAP reporter activity: 0.979

compound: O=c1cc(-c2ccc(O)cc2)oc2c(C3OCC(O)C(O)C3O)c(O)c(C3OC(CO)C(O)C(O)C3O)c(O)c12 (stereo unspecified) (library stock concentration (final ~1000-fold dilution): 10 mM)
NF-kB SEAP reporter activity: 1.08

compound: CCOC(=O)C(CCc1ccccc1)NC(C)C(=O)N1C(=O)N(C)CC1C(=O)O.Cl (stereo unspecified) (library stock concentration (final ~1000-fold dilution): 10 mM)
NF-kB SEAP reporter activity: 0.83

----------
Test system: RAW-Dual
Assay: NF-kB SEAP reporter activity, fold change vs agonist alone; cytotoxicity flag (confluency mask): cytotoxic (confluency <70% of control); higher = enhanced NF-kB activity
Settings: agonist: Pam3CSK4 (TLR2/1) 0.1 ug/mL
In all, about 2,900 compounds were measured (“NF-kB SEAP reporter activity, fold change vs agonist alone”: median about 0.99, highest 2% from about 2.6 on). For the sample, the highest values were picked, then their nearest neighbours and some compounds at random.
Criterion: NF-kB SEAP reporter activity meeting or surpassing 1. Met: MET. Not met: NOT MET.

molecule: C#Cc1cccc(Nc2ncnc3cc(OC)c(OCCCCCCC(=O)NO)cc23)c1 (library stock concentration (final ~1000-fold dilution): 10 mM)
system under test: RAW-Dual
label: MET

molecule: Cl.NCCOCCOCCNC(=O)Cc1ccc(Nc2nc(NCc3ccc(F)cc3)nc(NCC3CCCCC3)n2)cc1 (library stock concentration (final ~1000-fold dilution): 10 mM)
system under test: RAW-Dual
label: NOT MET

molecule: Nc1ccn(C2OC(CO)C(O)C2(F)F)c(=O)n1 (stereo unspecified) (library stock concentration (final ~1000-fold dilution): 10 mM)
system under test: RAW-Dual
label: MET

molecule: CS(=O)(=O)O.Cc1ccc(NC(=O)c2ccc(CN3CCN(C)CC3)cc2)cc1Nc1nccc(-c2cccnc2)n1 (library stock concentration (final ~1000-fold dilution): 10 mM)
system under test: RAW-Dual
label: MET

molecule: CNC1CCC(c2ccc(Cl)c(Cl)c2)c2ccccc21.Cl (stereo unspecified) (library stock concentration (final ~1000-fold dilution): 10 mM)
system under test: RAW-Dual
label: NOT MET

molecule: Nc1ncc(-c2ccnc(Nc3ccncc3)n2)c(CC2CC2)n1 (library stock concentration (final ~1000-fold dilution): 10 mM)
system under test: RAW-Dual
label: MET

molecule: Cc1cc(Nc2ncc(Cl)c(Nc3ccccc3S(=O)(=O)C(C)C)n2)c(OC(C)C)cc1C1CCNCC1 (library stock concentration (final ~1000-fold dilution): 10 mM)
system under test: RAW-Dual
label: NOT MET

molecule: CC(=O)c1ccc2c(c1)c1cc(C(C)=O)ccc1n2CCNC(C)C.Cl (library stock concentration (final ~1000-fold dilution): 10 mM)
system under test: RAW-Dual
label: NOT MET

molecule: COc1cc2c(cc1-c1c(C)noc1C)ncc1[nH]c(=O)n(C(C)c3ccccn3)c12 (stereo unspecified) (library stock concentration (final ~1000-fold dilution): 10 mM)
system under test: RAW-Dual
label: MET

molecule: O=C(/C=C/c1ccc(CN(CCO)CCc2c[nH]c3ccccc23)cc1)NO (library stock concentration (final ~1000-fold dilution): 10 mM)
system under test: RAW-Dual
label: MET

----------
Tested on: RAW-Dual
Assay: NF-kB SEAP reporter activity, fold change vs agonist alone; higher = enhanced NF-kB activity
Details: library stock concentration (final ~1000-fold dilution): 10 mM; cytotoxicity flag (confluency mask): cytotoxic (confluency <70% of control); agonist: MPLA (TLR4) […]
Whole data set: some 2,900 compounds, median “NF-kB SEAP reporter activity, fold change vs agonist alone” near 0.99, cut for the highest 2% near 2.6. The sample holds the highest values, similar compounds and a random draw of the others, so the mix is not that of the screen.
Entries annotated with measured NF-kB SEAP reporter activity

compound: CCc1cnn2c(NCc3ccc[n+]([O-])c3)cc(N3CCCCC3CCO)nc12 (configuration not stated)
NF-kB SEAP reporter activity: 0.225
//
compound: CCCCCCOc1cc(C)c(O)c(C)c1C
NF-kB SEAP reporter activity: 1.36
//
compound: CN1CCN(C2CCN(C(=O)Nc3cc(Oc4ccc(NC(=O)C5(C(=O)Nc6ccc(F)cc6)CC5)c(F)c4)ccn3)CC2)CC1
NF-kB SEAP reporter activity: 2.32
//
compound: CN(C)CCC=C1c2ccccc2C(C)(C)c2ccccc21.Cl
NF-kB SEAP reporter activity: 1.4
//
compound: c1cc(-c2cnn3cc(-c4ccc(N5CCNCC5)cc4)cnc23)c2cccnc2c1
NF-kB SEAP reporter activity: 0.269
//
compound: Cl.NC(=O)c1cnc(NC2CCCCC2N)nc1Nc1cccc(-n2nccn2)c1 (configuration not stated)
NF-kB SEAP reporter activity: 0.336
//
compound: CS(=O)(=O)O.Cn1cc(C2=C(c3cn(CCCSC(=N)N)c4ccccc34)C(=O)NC2=O)c2ccccc21
NF-kB SEAP reporter activity: 0.222
//
compound: Cc1cc(C)cc(C(=O)NOCCCCCC(=O)NO)c1
NF-kB SEAP reporter activity: 2.74
//
compound: O=C(NC1(c2ccccc2)CC1)c1c(CN2CCC(N3CCCCC3)CC2)c(-c2cccc(C(F)(F)F)c2)nc2cc(Br)ccc12
NF-kB SEAP reporter activity: 1.03
//
compound: CC(C)COc1ccc(CNC(=O)N(Cc2ccc(F)cc2)C2CCN(C)CC2)cc1.CC(C)COc1ccc(CNC(=O)N(Cc2ccc(F)cc2)C2CCN(C)CC2)cc1.O=C(O)C(O)C(O)C(=O)O
NF-kB SEAP reporter activity: 1.23
//
compound: CCCCCCCCCCCCCCCCCC[N+](C)(C)C
NF-kB SEAP reporter activity: 1.75
//
compound: CC/C=C\C/C=C\C/C=C\C/C=C\C/C=C\C/C=C\CCC(=O)NCCNC(=O)c1ccccc1O
NF-kB SEAP reporter activity: 1.54
//
compound: Cc1cc2c(C(N)=O)cccc2n1-c1nc2c(c(NCc3ccccc3)n1)COCC2
NF-kB SEAP reporter activity: 0.302
//
compound: CCC1(O)C(=O)OCc2c1cc1n(c2=O)Cc2cc3cc(O)ccc3nc2-1 (configuration not stated)
NF-kB SEAP reporter activity: 2
//
compound: COc1ccc(-c2oc3c(CC=C(C)C)c(O)cc(O)c3c(=O)c2OC2OC(C)C(O)C(O)C2O)cc1 (configuration not stated)
NF-kB SEAP reporter activity: 1.45
//
compound: O=[N+]([O-])c1ccc(S(=O)(=O)N2CCN(c3ccnc4cc(Cl)ccc34)CC2)c([N+](=O)[O-])c1
NF-kB SEAP reporter activity: 0.37
//
compound: CCNC(=O)C#Cc1ccc2c(c1)NC(=O)/C2=C(\Nc1ccc(CN(C)C)cc1)c1ccccc1
NF-kB SEAP reporter activity: 0.297
//
compound: CCC(C)(C)C(=O)OC1CC(C)C=C2C=CC(C)C(CCC3CC(O)CC(=O)O3)C21 (configuration not stated)
NF-kB SEAP reporter activity: 1.95
//
compound: O=C(Oc1cccc(F)c1OC(=O)c1cccc(O)c1)c1cccc(O)c1
NF-kB SEAP reporter activity: 1.24
//
compound: CC(C)COCC(CN(Cc1ccccc1)c1ccccc1)N1CCCC1.Cl.O (configuration not stated)
NF-kB SEAP reporter activity: 1.24
//
compound: CCN(CC)CCNC(=O)c1c(C)[nH]c(/C=C2/C(=O)Nc3ccc(-c4csc(-c5ccccc5)n4)cc32)c1C
NF-kB SEAP reporter activity: 1.55
//
compound: O=C(/C=C/c1cccc(S(=O)(=O)Nc2ccccc2)c1)NO
NF-kB SEAP reporter activity: 2.58
//
compound: C=CC1CC1(NC(=O)C1CC(Oc2ncc(OC)c3ccc(Cl)cc23)CN1C(=O)C(NC(=O)OC(C)(C)C)C(C)(C)C)C(=O)NS(=O)(=O)C1CC1 (configuration not stated)
NF-kB SEAP reporter activity: 1.06
//
compound: OC1C=C2CCN3Cc4cc5c(cc4C(C1O)C23)OCO5 (configuration not stated)
NF-kB SEAP reporter activity: 1.61
//
compound: Nc1ccn(C2OC(CO)C(O)C2(F)F)c(=O)n1 (configuration not stated)
NF-kB SEAP reporter activity: 1.35
//
compound: CC(C)N(CCC(=O)c1ccc2ccccc2c1)Cc1ccccc1.Cl
NF-kB SEAP reporter activity: 0.507
//
compound: CN(c1ncccc1CNc1nc(Nc2ccc3c(c2)CC(=O)N3)ncc1C(F)(F)F)S(C)(=O)=O.Cl
NF-kB SEAP reporter activity: 0.247
//
compound: CC(NCCC(c1ccccc1)c1ccccc1)c1ccccc1.Cl (configuration not stated)
NF-kB SEAP reporter activity: 1.24
//
compound: CC1(COc2ccc3c(c2)ncn3-c2ccc3cccc(N4CCC(N)CC4)c3n2)COC1
NF-kB SEAP reporter activity: 1.43
//
compound: CCC1(O)C(=O)OCc2c1cc1n(c2=O)Cc2cc3c(CN(C)C)c(O)ccc3nc2-1.Cl (configuration not stated)
NF-kB SEAP reporter activity: 2.16
//
compound: C1=CCOCc2cc(ccc2OCCN2CCCC2)Nc2nccc(n2)-c2cccc(c2)COC1
NF-kB SEAP reporter activity: 0.838
//
compound: CCCSc1nc(NC2CC2c2ccc(F)c(F)c2)c2nnn(C3CC(OCCO)C(O)C3O)c2n1 (configuration not stated)
NF-kB SEAP reporter activity: 0.94
//
compound: CCNC(=O)c1cc2c(-c3cc(C(C)(C)O)ccc3Oc3c(C)cc(F)cc3C)cn(C)c(=O)c2[nH]1
NF-kB SEAP reporter activity: 1.84
//
compound: CCN(CC)CCOc1ccc(Nc2ncc3cc(-c4c(Cl)cccc4Cl)c(=O)n(C)c3n2)cc1
NF-kB SEAP reporter activity: 0.332
//
compound: CN1C(=O)C(C)(C)Oc2c(-c3cn(C)c(=O)c4[nH]ccc34)cc(S(C)(=O)=O)cc21
NF-kB SEAP reporter activity: 2.34
//
compound: CN(C)CC1CCn2cc(c3ccccc32)C2=C(C(=O)NC2=O)c2cn(c3ccccc23)CCO1.Cl (configuration not stated)
NF-kB SEAP reporter activity: 2.13
//
compound: NS(=O)(=O)OC[C@H]1C[C@@H](Nc2ccnc3cc(-c4cccc(SC(F)(F)F)c4)nn23)[C@H](O)[C@@H]1O
NF-kB SEAP reporter activity: 0.255

The reported numbers originate from the supplement of paper PMC10037445.
